Molecular target: T1, GST-tagged yeast Sin3 PAH2 protein (residues 402-473) (S. cerevisiae, UniProt P22579 402-473)
T1 sequence (looked up): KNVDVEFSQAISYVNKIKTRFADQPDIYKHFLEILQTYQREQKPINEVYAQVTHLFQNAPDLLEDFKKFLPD
Test: fluorescence polarisation
metric: pIC50
Remember the convention: pIC50 equals -log10 of concentration in molar.

For reference, reported pIC50 for LDDDLGTAAAVLSNMR (peptide, UniProt P39001 516-531, looked up) [unlabeled Ume6 SID peptide (Ume6 residues 516-531)] stands at 4.27
